# ASSAY TARGET: b-Raf (V600E) (Homo sapiens (Human), UniProt P15056, V600E)
# Sequence (P15056 whole entry V600E): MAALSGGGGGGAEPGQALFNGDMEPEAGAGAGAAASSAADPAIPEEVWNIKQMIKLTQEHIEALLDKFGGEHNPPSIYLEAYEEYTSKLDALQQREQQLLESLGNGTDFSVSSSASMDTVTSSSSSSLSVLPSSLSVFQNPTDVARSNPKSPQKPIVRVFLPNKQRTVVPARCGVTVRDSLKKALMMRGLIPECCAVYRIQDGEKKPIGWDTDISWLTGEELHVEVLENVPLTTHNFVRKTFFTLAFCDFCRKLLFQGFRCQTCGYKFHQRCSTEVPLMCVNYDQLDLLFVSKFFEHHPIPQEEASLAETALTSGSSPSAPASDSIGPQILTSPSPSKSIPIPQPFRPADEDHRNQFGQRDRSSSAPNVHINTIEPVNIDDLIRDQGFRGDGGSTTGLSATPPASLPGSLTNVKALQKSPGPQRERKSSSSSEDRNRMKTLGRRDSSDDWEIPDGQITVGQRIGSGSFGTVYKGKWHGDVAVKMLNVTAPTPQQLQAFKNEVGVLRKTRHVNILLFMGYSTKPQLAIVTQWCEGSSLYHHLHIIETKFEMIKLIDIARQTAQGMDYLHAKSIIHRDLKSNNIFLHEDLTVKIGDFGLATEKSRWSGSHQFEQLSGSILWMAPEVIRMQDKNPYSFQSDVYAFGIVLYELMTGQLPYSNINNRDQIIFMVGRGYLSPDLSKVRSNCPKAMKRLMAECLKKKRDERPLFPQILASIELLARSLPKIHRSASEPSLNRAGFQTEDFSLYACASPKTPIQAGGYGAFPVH
# EXPERIMENTAL PARAMETERS: read-out: b-Raf IC-50; AlphaScreen, 60 min pre-incubation, 3 hours reaction
pIC50: −log10 of the molar value.
Everything with pIC50 lower than 8 is Criterion not met; everything else, including exactly 8, is Criterion met.

A selection of reference data follows.
Cc1ccc(NC(=O)c2ccnc(C(C)(F)F)c2)cc1-c1cc(N2C3CCC2COC3)cc(=O)n1C; Criterion not met
CCOc1nnc(-c2cc(NC(=O)c3ccnc(C(C)(F)F)c3)cnc2C)cc1N1CCOCC1; Criterion met
Cc1ccc(NC(=O)c2ccnc(C(C)(C)O)c2)cc1-c1cc(N2CCOCC2)c2nccn2n1; Criterion met

Is reported pIC50 greater than or equal to 8 here: Cc1ncc(NC(=O)c2ccnc(C(C)(F)F)c2)cc1-c1cc(N2CCOCC2)c(OC2CCOCC2)nn1
Criterion met

Is reported pIC50 greater than or equal to 8 here: CCNCc1ccc(C(=O)Nc2ccc(C)c(-c3cc(N4CCOCC4)c(OCC)nn3)c2)cc1C(F)(F)F
Criterion met

Is reported pIC50 greater than or equal to 8 here: Cc1ccc(C(=O)Nc2cccc(C(C)(C)O)c2)cc1-c1cc(N2CCOCC2)n(C)c(=O)c1
Criterion not met

Is reported pIC50 greater than or equal to 8 here: Cc1ccc(C(=O)Nc2ccccc2)cc1-c1cc(N2CCOCC2)n(C)c(=O)c1
Criterion not met

Is reported pIC50 greater than or equal to 8 here: CCOc1nnc(-c2cc(NC(=O)c3cccc(S(C)(=O)=O)c3)cnc2C)cc1N1CCOCC1
Criterion met

* * *

Assign IC50 to each entry below.
# ASSAY TARGET: b-Raf (V600E) (Homo sapiens (Human), UniProt P15056, V600E)
# EXPERIMENTAL PARAMETERS: read-out: b-Raf IC-50; AlphaScreen, 60 min pre-incubation, 3 hours reaction
One number for each entry, in nM.

CCOc1nnc(-c2cc(NC(=O)c3ccc(CN(C)C)c(C(F)(F)F)c3)ccc2C)cc1N1CCOCC1 [Example 576]; 3.5
CCNc1nc(-c2cc(C(=O)Nc3ccccc3)ccc2C)cc(N2CCOCC2)n1 [Example 731]; 4.4
CCNc1nc(-c2cc(NC(=O)c3ccnc(C(C)(C)C#N)c3)ccc2C)cc(N2CCOC[C@H]2C)n1 [Example 711]; 5.6

Batch of 4 compounds: report IC50 for each.
1. COc1nnc(-c2cc(NC(=O)c3cccc(S(C)(=O)=O)c3)ccc2C)cc1N1CCOCC1 [Example 553]
2. CCc1cc(C(=O)Nc2ccc(C)c(-c3cc(N4CCOCC4)c(=O)n(C)n3)c2)ccn1 [Example 642]
3. Cc1ccc(NC(=O)c2ccnc(C(C)(C)C#N)c2)cc1-c1cc(N2CCOCC2)nc(NCCO)n1 [Example 734]
4. Cc1ccc(NC(=O)c2ccnc(C(C)(C)C#N)c2)cc1-c1cc(N2CCOCC2)nc(NC2(CO)CCOCC2)n1 [Example 754]

1. 1.2
2. 1.4
3. 6.9
4. 3.4

* * *

# ASSAY TARGET: b-Raf (V600E) (Homo sapiens (Human), UniProt P15056, V600E)
# EXPERIMENTAL PARAMETERS: read-out: b-Raf IC-50; AlphaScreen, 60 min pre-incubation, reaction 3 hours at room temperature
MEASURE: pIC50
Answers are plain numbers, as −log10 of the molar value.

Cc1ccc(NC(=O)c2ccnc(C(C)(C)F)c2)cc1-c1cc(C2COCCO2)nc(N2CCOCC2)c1 (stereo not drawn); 8.81

Batch of 3 molecules: report pIC50 for each.
1. Cc1ncc(NC(=O)c2ccnc(C(F)F)c2)cc1-c1cc(NCCO)nc(N2CCOCC2)c1
2. Cc1ncc(NC(=O)c2cccc(C(F)(F)F)c2)cc1-c1cc(N2CCNCC2)nc(N2CCOCC2)c1
3. Cc1ccc(NC(=O)c2ccnc(C(F)(F)F)c2)cc1-c1cc(-c2c(C)n[nH]c2C)nc(N2CCOCC2)c1

[8.30, 8.33, 8.83]
